Assign Activity (macrophage chemotactic activity) to each entry below.
Tested on: macrophage (peritoneal exudate cells)
method-description: Macrophage chemotactic activity, 48 well chemotaxis chamber
Assay type: cell-based, guinea pig
test-conditions: Table 2; test described in Example 64; relative scale, Compound No. 1 = 100
Square brackets hold non-standard residues; d marks the D form. Peptide text beside a SMILES is read from it. * marks the point of attachment. Fmoc = O=C(OCC1c2ccccc2-c2ccccc21)*

Example cases with answers are listed next.
CC(C)C[C@H](NC(=O)[C@@H](Cc1c[nH]c2ccccc12)NC(=O)OCC1c2ccccc2-c2ccccc21)C(=O)NCC(=O)N[C@@H](CCCNC(=N)N)C(=O)N[C@@H](CCC(=O)O)C(=O)N[C@@H](CC(=O)O)C(=O)O [Compound 30] (Fmoc-[dW]LGRED-OH) :: < 10
CC(C)C[C@H](NC(=O)[C@H](Cc1c[nH]c2ccccc12)NC(=O)OCC1c2ccccc2-c2ccccc21)C(=O)NCC(=O)N[C@@H](CCCNC(=N)N)C(=O)N[C@@H](CCC(=O)O)C(=O)N[C@@H](CC(=O)O)C(=O)O [Compound 29] (Fmoc-WLGRED-OH) :: < 10

Now, please, on to the next compound.
// query Give Activity (macrophage chemotactic activity) for CC(C)C[C@H](NC(=O)[C@H](Cc1c[nH]c2ccccc12)NC(=O)OCC1c2ccccc2-c2ccccc21)C(=O)NCC(=O)N[C@@H](CCCNC(=N)N)C(=O)N[C@@H](CCC(=O)O)C(=O)N[C@@H](CC(=O)O)C(=O)NCC(=O)N[C@@H](CO)C(=O)N[C@@H](CCC(=O)O)C(=O)O [Compound 13] (Fmoc-WLGREDGSE-OH)
// result < 10

* * *

System: macrophage (peritoneal exudate cells)
method-description: Macrophage chemotactic activity, 48 well chemotaxis chamber
Type: cell-based, guinea pig
test-conditions: Table 2; test described in Example 64; relative scale, Compound No. 1 = 100
Square brackets hold non-standard residues; d marks the D form. Peptide text beside a SMILES is read from it. * marks the point of attachment. Fmoc = O=C(OCC1c2ccccc2-c2ccccc21)*
Assign Activity (macrophage chemotactic activity) to each entry below.

Batch request: Activity (macrophage chemotactic activity) per item, same order as input.
1. CC(C)C[C@@H](NC(=O)[C@H](Cc1c[nH]c2ccccc12)NC(=O)OCC1c2ccccc2-c2ccccc21)C(=O)NCC(=O)N[C@@H](CCCNC(=N)N)C(=O)N[C@@H](CCC(=O)O)C(=O)N[C@@H](CC(=O)O)C(=O)O [Compound 32] (Fmoc-W[dL]GRED-OH)
2. CC(C)C[C@H](NC(=O)[C@H](Cc1c[nH]c2ccccc12)NC(=O)OCC1c2ccccc2-c2ccccc21)C(=O)NCC(=O)N[C@@H](CCCNC(=N)N)C(=O)N[C@@H](CCC(=O)O)C(=O)N[C@H](CC(=O)O)C(=O)O [Compound 39] (Fmoc-WLGRE[dD]-OH)
3. CC(C)C[C@H](NC(=O)[C@H](Cc1c[nH]c2ccccc12)NC(=O)OCC1c2ccccc2-c2ccccc21)C(=O)NCC(=O)N[C@@H](CCCNC(=N)N)C(=O)N[C@H](CCC(=O)O)C(=O)N[C@@H](CC(=O)O)C(=O)O [Compound 34] (Fmoc-WLGR[dE]D-OH)
4. CC(C)C[C@H](NC(=O)[C@@H](N)Cc1c[nH]c2ccccc12)C(=O)NCC(=O)N[C@@H](CCCNC(=N)N)C(=O)O [Compound 27, H-L-Trp-L-Leu-Gly-L-Arg-OH] (H-WLGR-OH)

// result
["< 10", 10, "< 10", "< 10"]
